target: SALL4 ZNF1-2 (Homo sapiens, UniProt Q96SW2+Q9UJQ4); construct: IKZF1Δ, IKZF2Δ, GSPT1 and SALL4 ZnF1-2 were subcloned; expressed in transfected cells; host or cells: Flp-In 293; assay: Cellular degradation assay, eGFP-SALL4 ZnF1-2 fusion with mCherry reporter in Flp-In 293 cells; format: cell-based; conditions: compound concentration 2.00E−05; 5 h incubation; n=1
Sequence (Q9UJQ4 378-438 limits assumed): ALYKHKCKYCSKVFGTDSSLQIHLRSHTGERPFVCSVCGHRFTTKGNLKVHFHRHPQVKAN
Sequence (Q96SW2 whole entry, the tested form may be a part): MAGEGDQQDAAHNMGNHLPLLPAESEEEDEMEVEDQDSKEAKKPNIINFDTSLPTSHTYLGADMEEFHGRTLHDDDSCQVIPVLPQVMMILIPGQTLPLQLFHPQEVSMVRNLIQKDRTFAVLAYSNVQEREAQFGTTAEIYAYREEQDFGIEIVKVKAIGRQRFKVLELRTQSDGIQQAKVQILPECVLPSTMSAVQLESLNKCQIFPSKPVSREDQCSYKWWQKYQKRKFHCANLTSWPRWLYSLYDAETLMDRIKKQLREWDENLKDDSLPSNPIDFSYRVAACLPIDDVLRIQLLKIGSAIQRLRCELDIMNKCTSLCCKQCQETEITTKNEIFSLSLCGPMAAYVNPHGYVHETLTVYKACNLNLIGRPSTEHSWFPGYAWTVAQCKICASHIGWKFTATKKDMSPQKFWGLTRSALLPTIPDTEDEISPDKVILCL
Sequence (Q16531 whole entry partner, the tested form may be a part): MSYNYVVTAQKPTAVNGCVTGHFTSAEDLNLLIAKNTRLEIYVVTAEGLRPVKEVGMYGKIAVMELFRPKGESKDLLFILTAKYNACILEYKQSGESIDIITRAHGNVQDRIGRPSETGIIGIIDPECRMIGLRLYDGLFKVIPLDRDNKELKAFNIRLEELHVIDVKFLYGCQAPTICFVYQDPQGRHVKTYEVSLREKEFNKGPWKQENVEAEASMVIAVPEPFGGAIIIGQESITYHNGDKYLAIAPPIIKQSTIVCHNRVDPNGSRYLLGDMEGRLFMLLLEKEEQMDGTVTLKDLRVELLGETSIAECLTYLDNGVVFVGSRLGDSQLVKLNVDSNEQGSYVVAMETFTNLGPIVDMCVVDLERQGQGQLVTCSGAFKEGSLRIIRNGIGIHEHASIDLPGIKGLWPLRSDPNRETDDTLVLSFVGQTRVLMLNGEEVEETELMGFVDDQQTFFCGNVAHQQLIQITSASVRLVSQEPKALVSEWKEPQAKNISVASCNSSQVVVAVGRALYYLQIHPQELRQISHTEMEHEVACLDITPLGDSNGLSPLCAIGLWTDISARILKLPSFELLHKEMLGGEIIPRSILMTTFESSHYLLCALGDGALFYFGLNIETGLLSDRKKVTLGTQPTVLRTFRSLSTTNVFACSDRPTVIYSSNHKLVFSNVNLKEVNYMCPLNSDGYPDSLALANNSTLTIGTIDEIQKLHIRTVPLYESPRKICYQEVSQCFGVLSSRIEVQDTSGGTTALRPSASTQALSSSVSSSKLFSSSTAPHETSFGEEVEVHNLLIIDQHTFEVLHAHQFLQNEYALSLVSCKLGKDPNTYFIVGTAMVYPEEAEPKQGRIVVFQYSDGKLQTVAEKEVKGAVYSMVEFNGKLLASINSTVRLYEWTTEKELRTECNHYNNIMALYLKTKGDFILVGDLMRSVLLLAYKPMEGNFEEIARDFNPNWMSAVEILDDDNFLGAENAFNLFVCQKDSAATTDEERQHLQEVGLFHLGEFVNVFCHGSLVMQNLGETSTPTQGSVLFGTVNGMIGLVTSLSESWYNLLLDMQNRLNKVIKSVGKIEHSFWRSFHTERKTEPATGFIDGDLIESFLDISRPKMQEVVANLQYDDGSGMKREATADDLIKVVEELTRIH
// boundary case: SALL4 ZNF1-2 GFP/RFP Relative Abundance equal to 1 maps to not met; strictly smaller maps to met

compound="Cc1ccc(NC(=O)NCc2ccccc2NC2=CC(=O)N(C3CCC(=O)NC3=O)C2=O)cc1Cl (centres unmarked)" group="not met"
compound="Cc1ccc(NC2=CC(=O)N(C3CCC(=O)NC3=O)C2=O)cc1Cl (centres unmarked)" group=met
compound="O=C(O)CCCNC1=CC(=O)N(C2CCC(=O)NC2=O)C1=O (centres unmarked)" group=met
compound="CCOC(=O)c1cccc(NC2=CC(=O)N(C3CCC(=O)NC3=O)C2=O)c1 (centres unmarked)" group=met
compound="CN(C)C(=O)c1cccc(NC2=CC(=O)N(C3CCC(=O)NC3=O)C2=O)c1 (centres unmarked)" group=met
compound="Cc1ccc(NC(=O)NCc2ccc(NC3=CC(=O)N(C4CCC(=O)NC4=O)C3=O)cc2)cc1Cl (centres unmarked)" group=met
compound="O=C1CCC(N2C(=O)C=C(Nc3ccccc3)C2=O)C(=O)N1 (centres unmarked)" group=met
compound="O=C1CCC(N2C(=O)C=C(Nc3cccc(Cl)c3)C2=O)C(=O)N1 (centres unmarked)" group=met
compound="CCOC(=O)CN(C)C1=CC(=O)N(C2CCC(=O)NC2=O)C1=O (centres unmarked)" group=met
compound="COC(=O)CNC1=CC(=O)N(C2CCC(=O)NC2=O)C1=O (centres unmarked)" group=met
compound="O=C(O)CCCCNC1=CC(=O)N(C2CCC(=O)NC2=O)C1=O (centres unmarked)" group=met
compound="Cc1ccc(NC2=CC(=O)N(C3CCC(=O)NC3=O)C2=O)cc1C (centres unmarked)" group=met
compound="O=C1CCC(N2C(=O)C=C(Nc3ccc(-n4ccnc4)cc3)C2=O)C(=O)N1 (centres unmarked)" group=met
compound="Cc1ccc(NC(=O)NCCCNC2=CC(=O)N(C3CCC(=O)NC3=O)C2=O)cc1Cl (centres unmarked)" group="not met"
compound="COC(=O)c1n[nH]c(NC2=CC(=O)N(C3CCC(=O)NC3=O)C2=O)n1 (centres unmarked)" group=met
compound="COC(=O)CN(C)C1=CC(=O)N(C2CCC(=O)NC2=O)C1=O (centres unmarked)" group=met
compound="Cc1ccc(NC(=O)Nc2ccc(NC3=CC(=O)N(C4CCC(=O)NC4=O)C3=O)cc2)cc1Cl (centres unmarked)" group="not met"
compound="O=C1CCC(N2C(=O)C=C(Nc3ccc(Cc4ccccc4)cc3)C2=O)C(=O)N1 (centres unmarked)" group="not met"
compound="O=C1CCC(N2C(=O)C=C(Nc3ccc(Cl)cc3)C2=O)C(=O)N1 (centres unmarked)" group=met
compound="CN(C)C(=O)c1ccc(NC2=CC(=O)N(C3CCC(=O)NC3=O)C2=O)cc1 (centres unmarked)" group=met
compound="O=C1CCC(N2C(=O)C=C(Nc3cccc(-c4cc[nH]n4)c3)C2=O)C(=O)N1 (centres unmarked)" group=met
compound="O=C1CCC(N2C(=O)C=C(Nc3ccc4cc[nH]c4c3)C2=O)C(=O)N1 (centres unmarked)" group=met
compound="Cc1cc(NC2=CC(=O)N(C3CCC(=O)NC3=O)C2=O)ccc1Cl (centres unmarked)" group=met
compound="COC(=O)CCNC1=CC(=O)N(C2CCC(=O)NC2=O)C1=O (centres unmarked)" group=met
compound="O=C1CCC(N2C(=O)C=C(Nc3nc[nH]n3)C2=O)C(=O)N1 (centres unmarked)" group=met
compound="CN(C1=CC(=O)N(C2CCC(=O)NC2=O)C1=O)c1ccccc1 (centres unmarked)" group=met
